Experiment: Permeability from apical side to basolateral side in human Caco2 cells
Type: ADME, cell-based
Conditions: Caco-2, read-out: permeability
Could you please report measured Papp A→B for the items listed next?
Write the number in ×10⁻⁶ cm/s without appending the unit.

Papp A→B lookup needed for "NC1=N[C@@]2(c3cc(NC(=O)c4ccc(Cl)cn4)ccc3F)OCC[C@H]2CS1" , thanks.
17.7

Papp A→B lookup needed for "N#Cc1ccc(C(=O)Nc2ccc(F)c([C@@]34N=C(N)SC[C@@H]3CCO4)c2)nc1" , thanks.
16.4

Hey, just so you know, these numbers are from ChEMBL document CHEMBL3867475.
